In this section we review reported log10 Kinact values for a set of compounds.
- system.under.test: Cruzipain (Trypanosoma cruzi)
- assay.remarks: Inhibition of Trypanosoma cruzi cruzain
Record value = log10 of Kinact given in s⁻¹.

Worked examples follow.
{"structure.string": "Cc1ccc(C[C@H](NC(=O)c2ccc3c(c2)OCCO3)C(=O)N[C@H](/C=C/S(=O)(=O)c2ccccc2)CCc2ccccc2)cc1", "system.under.test": "Cruzipain (Trypanosoma cruzi)", "log10 Kinact": -2.22}
{"structure.string": "CN1CCN(C(=O)N[C@@H](Cc2cccc(C(F)(F)F)c2)C(=O)N[C@H](/C=C/S(=O)(=O)c2ccccc2)CCc2ccccc2)CC1", "system.under.test": "Cruzipain (Trypanosoma cruzi)", "log10 Kinact": -2.05}
{"structure.string": "Cc1cccc(C[C@H](NC(=O)c2ccc(C(F)(F)F)cc2)C(=O)N[C@H](/C=C/S(=O)(=O)c2ccccc2)CCc2ccccc2)c1", "system.under.test": "Cruzipain (Trypanosoma cruzi)", "log10 Kinact": -2.46}
{"structure.string": "Cc1ccc(C[C@H](NC(=O)c2cc(F)cc(F)c2)C(=O)N[C@H](/C=C/S(=O)(=O)c2ccccc2)CCc2ccccc2)cc1", "system.under.test": "Cruzipain (Trypanosoma cruzi)", "log10 Kinact": -1.92}
{"structure.string": "Cc1cccc(C[C@H](NC(=O)c2ccc3c(c2)OCCO3)C(=O)N[C@H](/C=C/S(=O)(=O)c2ccccc2)CCc2ccccc2)c1", "system.under.test": "Cruzipain (Trypanosoma cruzi)", "log10 Kinact": -3.00}

Inquiry: Entry Cc1ccc(C[C@H](NC(=O)c2ccccn2)C(=O)N[C@H](/C=C/S(=O)(=O)c2ccccc2)CCc2ccccc2)cc1 has what log10 Kinact?
Reply text: -1.57

Inquiry: // query: O=C(N[C@@H](Cc1ccccc1)C(=O)N[C@H](/C=C/S(=O)(=O)c1ccccc1)CCc1ccccc1)c1cc(F)cc(F)c1
Reply text: -0.51

---

- Tested on: Trypanosoma brucei
- assay.remarks: Ratio of Kinact to Ki of Trypanosoma brucei cathepsin B
Classify: Fulfilled when Ka is strictly less than 400 M⁻¹ s⁻¹; Not fulfilled when Ka is not.

Examples from the recorded data:
{"structure.string": "Cc1ccc(C[C@H](NC(=O)c2ccccn2)C(=O)N[C@H](/C=C/S(=O)(=O)c2ccccc2)CCc2ccccc2)cc1", "discrete.label": "Fulfilled"}
{"structure.string": "CN1CCN(C(=O)N[C@@H](Cc2ccccc2)C(=O)N[C@H](/C=C/S(=O)(=O)c2ccccc2)CCc2ccccc2)CC1", "discrete.label": "Not fulfilled"}
{"structure.string": "Cc1cccc(C[C@H](NC(=O)c2ccc3c(c2)OCCO3)C(=O)N[C@H](/C=C/S(=O)(=O)c2ccccc2)CCc2ccccc2)c1", "discrete.label": "Not fulfilled"}

Inquiry: Dear colleague, could you confirm whether Ka of Cc1ccc(C[C@H](NC(=O)c2ccc3c(c2)OCCO3)C(=O)N[C@H](/C=C/S(=O)(=O)c2ccccc2)CCc2ccccc2)cc1 falls below 400 M⁻¹ s⁻¹? Thanks.
Reply text: Not fulfilled

Inquiry: // query: Cc1cccc(C[C@H](NC(=O)c2ccccn2)C(=O)N[C@H](/C=C/S(=O)(=O)c2ccccc2)CCc2ccccc2)c1
Reply text: Fulfilled

Inquiry: // query: CN1CCN(C(=O)N[C@@H](Cc2cccnc2)C(=O)N[C@H](/C=C/S(=O)(=O)c2ccccc2)CCc2ccccc2)CC1
Reply text: Not fulfilled

Inquiry: // query: O=C(N[C@@H](Cc1ccccc1)C(=O)N[C@H](/C=C/S(=O)(=O)c1ccccc1)CCc1ccccc1)c1ccc2c(c1)OCCO2
Reply text: Not fulfilled

Inquiry: // query: O=C(N[C@@H](Cc1ccccc1)C(=O)N[C@H](/C=C/S(=O)(=O)c1ccccc1)CCc1ccccc1)c1ccc(C(F)(F)F)cc1
Reply text: Fulfilled

Inquiry: // query: O=C(N[C@@H](Cc1cccc(C(F)(F)F)c1)C(=O)N[C@H](/C=C/S(=O)(=O)c1ccccc1)CCc1ccccc1)c1ccccn1
Reply text: Not fulfilled

Inquiry: // query: O=C(N[C@@H](Cc1ccccc1)C(=O)N[C@H](/C=C/S(=O)(=O)c1ccccc1)CCc1ccccc1)c1ccccn1
Reply text: Fulfilled

---

- Test system: Trypanosoma brucei
- assay.remarks: Inhibition of Trypanosoma brucei rhodesain
property.measured: log10(Kinact) (log10 of the value in s⁻¹)
Record value = log10 of Kinact given in s⁻¹.

Worked examples follow.
{"structure.string": "Cc1cccc(C[C@H](NC(=O)c2ccccn2)C(=O)N[C@H](/C=C/S(=O)(=O)c2ccccc2)CCc2ccccc2)c1", "log10(Kinact)": -1.40}
{"structure.string": "Cc1ccc(C[C@H](NC(=O)c2cc(F)cc(F)c2)C(=O)N[C@H](/C=C/S(=O)(=O)c2ccccc2)CCc2ccccc2)cc1", "log10(Kinact)": -1.96}
{"structure.string": "Cc1cccc(C[C@H](NC(=O)c2ccc(C(F)(F)F)cc2)C(=O)N[C@H](/C=C/S(=O)(=O)c2ccccc2)CCc2ccccc2)c1", "log10(Kinact)": -2.30}
{"structure.string": "Cc1ccc(C[C@H](NC(=O)N2CCN(C)CC2)C(=O)N[C@H](/C=C/S(=O)(=O)c2ccccc2)CCc2ccccc2)cc1", "log10(Kinact)": -0.96}
{"structure.string": "Cc1cccc(C[C@H](NC(=O)c2ccc3c(c2)OCCO3)C(=O)N[C@H](/C=C/S(=O)(=O)c2ccccc2)CCc2ccccc2)c1", "log10(Kinact)": -2.03}
{"structure.string": "Cc1cccc(C[C@H](NC(=O)c2cc(F)cc(F)c2)C(=O)N[C@H](/C=C/S(=O)(=O)c2ccccc2)CCc2ccccc2)c1", "log10(Kinact)": -1.64}
{"structure.string": "Cc1ccc(C[C@H](NC(=O)c2ccc3c(c2)OCCO3)C(=O)N[C@H](/C=C/S(=O)(=O)c2ccccc2)CCc2ccccc2)cc1", "log10(Kinact)": -1.51}
{"structure.string": "O=C(N[C@@H](Cc1ccccc1)C(=O)N[C@H](/C=C/S(=O)(=O)c1ccccc1)CCc1ccccc1)c1ccc(C(F)(F)F)cc1", "log10(Kinact)": -2.05}

Then this compound:
Inquiry: Entry O=C(N[C@@H](Cc1ccccc1)C(=O)N[C@H](/C=C/S(=O)(=O)c1ccccc1)CCc1ccccc1)c1cc(F)cc(F)c1 has what log10(Kinact)?
Reply text: -1.68

---

In this section we review reported pKi values for a set of compounds.
- assay.remarks: Inhibition of Trypanosoma brucei rhodesain
Quick note: pKi means taking -log10 of the concentration in moles per liter.

{"structure.string": "Cc1ccc(C[C@H](NC(=O)c2ccc(C(F)(F)F)cc2)C(=O)N[C@H](/C=C/S(=O)(=O)c2ccccc2)CCc2ccccc2)cc1", "recorded.result": 7.48}
{"structure.string": "CN1CCN(C(=O)N[C@@H](Cc2ccccc2)C(=O)N[C@H](/C=C/S(=O)(=O)c2ccccc2)CCc2ccccc2)CC1", "recorded.result": 6.57}
{"structure.string": "O=C(N[C@@H](Cc1cccc(C(F)(F)F)c1)C(=O)N[C@H](/C=C/S(=O)(=O)c1ccccc1)CCc1ccccc1)c1cc(F)cc(F)c1", "recorded.result": 7.48}
{"structure.string": "Cc1cccc(C[C@H](NC(=O)c2ccc3c(c2)OCCO3)C(=O)N[C@H](/C=C/S(=O)(=O)c2ccccc2)CCc2ccccc2)c1", "recorded.result": 7.43}

Then this compound:
Inquiry: Entry Cc1ccc(C[C@H](NC(=O)N2CCN(C)CC2)C(=O)N[C@H](/C=C/S(=O)(=O)c2ccccc2)CCc2ccccc2)cc1 has what pKi?
Reply text: 6.92

---

- system.under.test: Cruzipain (Trypanosoma cruzi) (UniProt P25779)
- Sequence (P25779 123-467 limits assumed): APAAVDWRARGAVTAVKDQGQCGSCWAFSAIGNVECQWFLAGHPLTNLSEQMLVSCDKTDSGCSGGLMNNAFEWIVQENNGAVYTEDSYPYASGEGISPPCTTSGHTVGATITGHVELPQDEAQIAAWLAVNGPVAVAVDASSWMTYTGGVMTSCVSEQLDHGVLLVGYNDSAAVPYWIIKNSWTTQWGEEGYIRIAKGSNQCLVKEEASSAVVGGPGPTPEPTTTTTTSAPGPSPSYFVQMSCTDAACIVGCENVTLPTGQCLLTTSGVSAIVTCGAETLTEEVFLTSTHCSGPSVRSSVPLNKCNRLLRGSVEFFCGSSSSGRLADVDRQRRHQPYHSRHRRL
- assay.remarks: Ratio of Kinact to ki of Trypanosoma cruzi cruzain
property.measured: Ratio

Worked examples follow.
{"structure.string": "Cc1cccc(C[C@H](NC(=O)c2cc(F)cc(F)c2)C(=O)N[C@H](/C=C/S(=O)(=O)c2ccccc2)CCc2ccccc2)c1", "property.measured": "Ratio", "recorded.result": "105000 M⁻¹ s⁻¹"}
{"structure.string": "Cc1ccc(C[C@H](NC(=O)c2cc(F)cc(F)c2)C(=O)N[C@H](/C=C/S(=O)(=O)c2ccccc2)CCc2ccccc2)cc1", "property.measured": "Ratio", "recorded.result": "34000 M⁻¹ s⁻¹"}

Then this compound:
Inquiry: Entry Cc1cccc(C[C@H](NC(=O)N2CCN(C)CC2)C(=O)N[C@H](/C=C/S(=O)(=O)c2ccccc2)CCc2ccccc2)c1 has what Ratio?
Reply text: 257000 M⁻¹ s⁻¹
